Tested on: HCV replicon in cell line ET (luc-ubi-neo/ET), Huh7 human hepatoma
Assay: HCV subgenomic replicon assay, luciferase end point
Assay type: cell-based
Conditions: Table 13, HCV replicon luciferase; read-out: Antiviral activity EC50

compound	EC50
C/C=C/C[C@@H](C)[C@@H](O)[C@H]1C(=O)N[C@@H](CC)C(=O)N(C)[C@@H](CSCCN(CC)CC)C(=O)N(C)[C@@H](CC(C)(C)O)C(=O)N[C@@H](C(C)C)C(=O)N(C)[C@@H](CC(C)C)C(=O)N[C@@H](C)C(=O)N[C@H](C)C(=O)N(C)[C@@H](CC(C)C)C(=O)N(C)[C@@H](CC(C)C)C(=O)N(C)[C@@H](C(C)C)C(=O)N1C (single isomer, unassigned; isomer a)	2.12 µM
CCCCC(C)C(O)C1C(=O)NC(CC)C(=O)N(C)CC(=O)N(C)C(CC(C)(C)OC)C(=O)NC(C(C)C)C(=O)N(C)C(CC(C)C)C(=O)NC(C)C(=O)NC(C)C(=O)N(C)C(CC(C)C)C(=O)N(C)C(CC(C)C)C(=O)N(C)C(C(C)C)C(=O)N1C (stereo not drawn)	0.35 µM
CC=CCC(C)C(O)C1C(=O)NC(CC)C(=O)N(C)C(SCCCN(CC)CC)C(=O)N(C)C(CC(C)(C)O)C(=O)NC(C(C)C)C(=O)N(C)C(CC(C)C)C(=O)NC(C)C(=O)NC(C)C(=O)N(C)C(CC(C)C)C(=O)N(C)C(CC(C)C)C(=O)N(C)C(C(C)C)C(=O)N1C (stereo not drawn)	0.07 µM

* * *

Tested on: HCV replicon in cell line ET (luc-ubi-neo/ET), Huh7 human hepatoma
Assay: HCV subgenomic replicon assay, luciferase end point
Format: cell-based
Details: Hepatitis C virus, Huh-7, HCV subgenomic replicon, cell line ET (luc-ubi-neo/ET) Huh7, luciferase end point; read-out: Antiviral activity EC50
Catalogue of EC50 values
measuredQuantity: EC50 (nM)

compound	measuredQuantity	resultValue
C/C=C/C[C@@H](C)[C@@H](O)[C@H]1C(=O)N[C@@H](CC)C(=O)N(C)[C@H](CSCCNC(C)C)C(=O)N(C)[C@@H](CC(C)(C)O)C(=O)N[C@@H](C(C)C)C(=O)N(C)[C@@H](CC(C)C)C(=O)N[C@@H](C)C(=O)N[C@H](C)C(=O)N(C)[C@@H](CC(C)C)C(=O)N(C)[C@@H](CC(C)C)C(=O)N(C)[C@@H](C(C)C)C(=O)N1C	EC50	190
C/C=C/C[C@@H](C)[C@@H](O)[C@H]1C(=O)N[C@@H](CC)C(=O)N(C)[C@H](CSCCN2CCOCC2)C(=O)N(C)[C@@H](CC(C)(C)O)C(=O)N[C@@H](C(C)C)C(=O)N(C)[C@@H](CC(C)C)C(=O)N[C@@H](C)C(=O)N[C@H](C)C(=O)N(C)[C@@H](CC(C)C)C(=O)N(C)[C@@H](CC(C)C)C(=O)N(C)[C@@H](C(C)C)C(=O)N1C	EC50	60
C/C=C/C[C@@H](C)[C@@H](O)[C@H]1C(=O)N[C@@H](CC)C(=O)N(C)[C@H](C)C(=O)N(CC)[C@@H](C(C)C)C(=O)N[C@@H](C(C)C)C(=O)N(C)[C@@H](CC(C)C)C(=O)N[C@@H](C)C(=O)N[C@H](C)C(=O)N(C)[C@@H](CC(C)C)C(=O)N(C)[C@@H](CC(C)C)C(=O)N(C)[C@@H](C(C)C)C(=O)N1C [[D-N-MeAla]-3-[N-EtVal]-4-cyclosporin, reference compound]	EC50	70

* * *

Tested on: HCV replicon in cell line ET (luc-ubi-neo/ET), Huh7 human hepatoma
Test: HCV subgenomic replicon assay, luciferase end point
Format: cell-based
Conditions: Table 13, HCV replicon luciferase; read-out: Antiviral activity EC50
pEC50: −log10 of the molar value. *1 amine or outer side, *2 acyl side, *3 side chain or, on linkers, in order; H or OH if unused. Where a SMILES comes first, the peptide text is derived from it. [ ]: non-standard residue; d: D form. NMe(dihydroBmt) = CCCC[C@@H](C)[C@@H](O)[C@H](NC)C(=O)O; X11 = CN([C@@H](CC(C)(C)OCCO)C(=O)[*:2])[*:1]; X3 = CC=CCC(C)C(O)C(C(=O)[*:2])N(C)[*:1]; X9 = C=CCOC(C)(C)CC(C(=O)[*:2])N(C)[*:1]; X5 = CSCOC(C)(C)CC(C(=O)[*:2])N(C)[*:1]; X7 = CN(C(SCCCN1CCOCC1)C(=O)[*:2])[*:1]; X4 = CCN(CC)CCSC(C(=O)[*:2])N(C)[*:1]; NMeL = CN[CH](CC(C)C)C(=O)O; NMeV = CN[CH](C(=O)O)C(C)C; Abu = CC[CH](N)C(=O)O; Sar = CNCC(=O)O
Catalogue of pEC50 values
measuredQuantity: pEC50

molecule	targetDesc	resultValue
C/C=C/C[C@@H](C)[C@@H](O)[C@H]1C(=O)N[C@@H](CC)C(=O)N(C)CC(=O)N(C)[C@@H](CC(C)(C)OCSC)C(=O)N[C@@H](C(C)C)C(=O)N(C)[C@@H](CC(C)C)C(=O)N[C@@H](C)C(=O)N[C@H](C)C(=O)N(C)[C@@H](CC(C)C)C(=O)N(C)[C@@H](CC(C)C)C(=O)N(C)[C@@H](C(C)C)C(=O)N1C	HCV replicon in cell line ET (luc-ubi-neo/ET), Huh7 human hepatoma	6.40
C=CCOC(C)(C)CC1C(=O)NC(C(C)C)C(=O)N(C)C(CC(C)C)C(=O)NC(C)C(=O)NC(C)C(=O)N(C)C(CC(C)C)C(=O)N(C)C(CC(C)C)C(=O)N(C)C(C(C)C)C(=O)N(C)C(C(O)C(C)CC=CC)C(=O)NC(CC)C(=O)N(C)C(SCCCN2CCOCC2)C(=O)N1C (stereo not drawn) (cyclo([X3][Abu][X7][X9]V[NMeL]AA[NMeL][NMeL][NMeV]); configuration not given here)	HCV replicon in cell line ET (luc-ubi-neo/ET), Huh7 human hepatoma	6.82
CC=CCC(C)C(O)C1C(=O)NC(CC)C(=O)N(C)C(SCCN(CC)CC)C(=O)N(C)C(CC(C)(C)OCSC)C(=O)NC(C(C)C)C(=O)N(C)C(CC(C)C)C(=O)NC(C)C(=O)NC(C)C(=O)N(C)C(CC(C)C)C(=O)N(C)C(CC(C)C)C(=O)N(C)C(C(C)C)C(=O)N1C (stereo not drawn) (cyclo([X3][Abu][X4][X5]V[NMeL]AA[NMeL][NMeL][NMeV]); configuration not given here)	HCV replicon in cell line ET (luc-ubi-neo/ET), Huh7 human hepatoma	6.89
CCCC[C@@H](C)[C@@H](O)[C@H]1C(=O)N[C@@H](CC)C(=O)N(C)CC(=O)N(C)[C@@H](CC(C)(C)OCCO)C(=O)N[C@@H](C(C)C)C(=O)N(C)[C@@H](CC(C)C)C(=O)N[C@@H](C)C(=O)N[C@H](C)C(=O)N(C)[C@@H](CC(C)C)C(=O)N(C)[C@@H](CC(C)C)C(=O)N(C)[C@@H](C(C)C)C(=O)N1C (cyclo(A[dA][NMeL][NMeL][NMeV][NMe(dihydroBmt)][Abu][Sar][X11]V[NMeL]))	HCV replicon in cell line ET (luc-ubi-neo/ET), Huh7 human hepatoma	6.37
CC=CCC(C)C(O)C1C(=O)NC(CC)C(=O)N(C)C(SCCCN2CCOCC2)C(=O)N(C)C(CC(C)(C)OC)C(=O)NC(C(C)C)C(=O)N(C)C(CC(C)C)C(=O)NC(C)C(=O)NC(C)C(=O)N(C)C(CC(C)C)C(=O)N(C)C(CC(C)C)C(=O)N(C)C(C(C)C)C(=O)N1C (stereo not drawn)	HCV replicon in cell line ET (luc-ubi-neo/ET), Huh7 human hepatoma	7.22
CC=CCC(C)C(O)C1C(=O)NC(CC)C(=O)N(C)C(SCCCN2CCOCC2)C(=O)N(C)C(CC(C)(C)O)C(=O)NC(C(C)C)C(=O)N(C)C(CC(C)C)C(=O)NC(C)C(=O)NC(C)C(=O)N(C)C(CC(C)C)C(=O)N(C)C(CC(C)C)C(=O)N(C)C(C(C)C)C(=O)N1C (stereo not drawn)	HCV replicon in cell line ET (luc-ubi-neo/ET), Huh7 human hepatoma	7.30

* * *

Test system: HCV replicon in cell line ET (luc-ubi-neo/ET), Huh7 human hepatoma
Assay: HCV subgenomic replicon assay, luciferase end point
Assay type: cell-based
Conditions: Table 13, HCV replicon luciferase; read-out: Antiviral activity EC50
*1 amine or outer side, *2 acyl side, *3 side chain or, on linkers, in order; H or OH if unused. Where a SMILES comes first, the peptide text is derived from it. [ ]: non-standard residue; d: D form. X12 = COc1ccc(COC(C)(C)CC(C(=O)[*:2])N(C)[*:1])cc1; X3 = CC=CCC(C)C(O)C(C(=O)[*:2])N(C)[*:1]; X5 = CSCOC(C)(C)CC(C(=O)[*:2])N(C)[*:1]; X7 = CN(C(SCCCN1CCOCC1)C(=O)[*:2])[*:1]; NMeL = CN[CH](CC(C)C)C(=O)O; NMeV = CN[CH](C(=O)O)C(C)C; Abu = CC[CH](N)C(=O)O

compound	EC50
CC=CCC(C)C(O)C1C(=O)NC(CC)C(=O)N(C)CC(=O)N(C)C(CC(C)(C)OC)C(=O)NC(C(C)C)C(=O)N(C)C(CC(C)C)C(=O)NC(C)C(=O)NC(C)C(=O)N(C)C(CC(C)C)C(=O)N(C)C(CC(C)C)C(=O)N(C)C(C(C)C)C(=O)N1C (stereo not drawn) [[(γ-Methoxy)-N-MeLeu]-4-cyclosporin]	180 nM
CC=CCC(C)C(O)C1C(=O)NC(CC)C(=O)N(C)C(SCCCN2CCOCC2)C(=O)N(C)C(CC(C)(C)OCc2ccc(OC)cc2)C(=O)NC(C(C)C)C(=O)N(C)C(CC(C)C)C(=O)NC(C)C(=O)NC(C)C(=O)N(C)C(CC(C)C)C(=O)N(C)C(CC(C)C)C(=O)N(C)C(C(C)C)C(=O)N1C (stereo not drawn) (cyclo([X3][Abu][X7][X12]V[NMeL]AA[NMeL][NMeL][NMeV]); configuration not given here)	280 nM
CC=CCC(C)C(O)C1C(=O)NC(CC)C(=O)N(C)C(SCCCN2CCOCC2)C(=O)N(C)C(CC(C)(C)OCSC)C(=O)NC(C(C)C)C(=O)N(C)C(CC(C)C)C(=O)NC(C)C(=O)NC(C)C(=O)N(C)C(CC(C)C)C(=O)N(C)C(CC(C)C)C(=O)N(C)C(C(C)C)C(=O)N1C (stereo not drawn) (cyclo([X3][Abu][X7][X5]V[NMeL]AA[NMeL][NMeL][NMeV]); configuration not given here)	160 nM

Where these numbers come from: patent US10647747B2
